Values were extracted from paper PMC7802075.

# target or test system: LmjIPCS (inositol phosphorylceramide synthase from L. major) (Leishmania major, UniProt E9AFX2)
# method: biochemical
# Type: biochemical
result type: 20mM inhibition LmjIPCS

molecule: CN1[C@@H](CC(=O)c2ccccc2)CCC[C@H]1C[C@H](O)c1ccccc1
20mM inhibition LmjIPCS: 38%

molecule: CC(C)=CCC[C@]1(C)C=Cc2c(O)c3c(c(CC=C(C)C)c2O1)O[C@]12C(=C[C@@H]4C[C@H]1C(C)(C)O[C@@]2(C/C=C(/C)C(=O)O)C4=O)C3=O
20mM inhibition LmjIPCS: 58%

molecule: CCN(CC)CCOC(=O)C(Cc1cccc2ccccc12)CC1CCCO1 (stereo not shown)
20mM inhibition LmjIPCS: 46%

// for each molecule below, give its 20mM inhibition LmjIPCS
1. OC(c1cc(C(F)(F)F)nc2c(C(F)(F)F)cccc12)C1CCCCN1 (stereo not shown)
2. CC(=O)Oc1ccc(C(c2ccc(OC(C)=O)cc2)c2ccccn2)cc1
3. CC(=O)[C@H]1CC[C@H]2[C@@H]3CCC4=CC(=O)CC[C@]4(C)[C@H]3CC[C@]12C
4. CCCc1cc(=O)[nH]c(=S)[nH]1
5. CO[C@]12C[C@@H](COC(=O)c3cncc(Br)c3)CN(C)[C@@H]1Cc1cn(C)c3cccc2c13
6. CNNC [1,2-DIMETHYLHYDRAZINE]

Reply:
["49%", "48%", "65%", "73%", "80%", "15%"]

// for each molecule below, give its 20mM inhibition LmjIPCS
1. CC(CCc1ccccc1)NCC(O)c1ccc(O)c(C(N)=O)c1 (stereo not shown)
2. CNCCC=C1c2ccccc2CCc2ccccc21
3. CCCCCCCCCCC[C@@H](C[C@@H]1OC(=O)[C@H]1CCCCCC)OC(=O)[C@H](CC(C)C)NC=O

Reply:
50%
81%
66%

###

# target or test system: LmjIPCS (inositol phosphorylceramide synthase from L. major) (Leishmania major)
# method: biochemical
# Type: biochemical
# condition info: NINDS set screen, compound at 20mM (so in the source)
What 20mM inhibition LmjIPCS was measured for each of the following?
Numbers only, in %.

molecule: N.N.[Cl][Pt][Cl] [CISPLATIN]
target or test system: LmjIPCS (inositol phosphorylceramide synthase from L. major) (Leishmania major)
result type: 20mM inhibition LmjIPCS
data value: 21

molecule: COc1ccc2cc([C@H](C)C(=O)O)ccc2c1 [NAPROXEN(+)]
target or test system: LmjIPCS (inositol phosphorylceramide synthase from L. major) (Leishmania major)
result type: 20mM inhibition LmjIPCS
data value: 18

// for each molecule below, give its 20mM inhibition LmjIPCS
1. Cc1c(OCC(F)(F)F)ccnc1C[S+]([O-])c1nc2ccccc2[nH]1 (centres unmarked)
2. C[C@]12CCC(=O)C=C1CC[C@@H]1[C@@H]2[C@@H](O)C[C@@]2(C)[C@H]1CC[C@]2(O)C(=O)COC(=O)CCC(=O)O [HYDROCORTISONE HEMISUCCINATE]
3. N.N.O=C([O-])C1(C(=O)[O-])CCC1.[Pt+2]

Reply:
23
18
16

// for each molecule below, give its 20mM inhibition LmjIPCS
1. COc1ccc(CCC(=O)c2c(O)cc(O[C@@H]3O[C@H](CO)[C@@H](O)[C@H](O)[C@H]3O[C@@H]3O[C@@H](C)[C@H](O)[C@@H](O)[C@H]3O)cc2O)cc1O [NEOHESPERIDIN DIHYDROCHALCONE]
2. N#Cc1c(Cl)c(Cl)c(Cl)c(C#N)c1Cl
3. Cc1cc(C(C)(C)CC(C)(C)C)ccc1OCCOCC[N+](C)(C)Cc1ccccc1.[Cl-] [METHYLBENZETHONIUM CHLORIDE]

Reply:
1: 15; 2: 15; 3: 12

###

# target or test system: LmjIPCS (inositol phosphorylceramide synthase from L. major) (Leishmania major)
# Sequence (E9AFX2 1-338): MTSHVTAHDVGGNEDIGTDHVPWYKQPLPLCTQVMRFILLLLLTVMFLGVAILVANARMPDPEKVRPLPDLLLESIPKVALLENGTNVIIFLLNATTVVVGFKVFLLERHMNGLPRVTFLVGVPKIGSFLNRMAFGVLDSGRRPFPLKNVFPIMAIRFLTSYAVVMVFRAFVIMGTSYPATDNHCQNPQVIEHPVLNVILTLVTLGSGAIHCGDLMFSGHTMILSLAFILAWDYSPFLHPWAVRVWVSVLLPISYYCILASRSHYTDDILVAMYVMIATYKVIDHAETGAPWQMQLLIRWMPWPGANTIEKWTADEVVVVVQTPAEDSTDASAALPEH
# method: biochemical
# Format: biochemical
Is 20mM inhibition LmjIPCS at least 50%? Then MET. If not, NOT MET.

Some solved cases for reference:
smiles repr: O=C(O)CC[N+](=O)[O-]
label value: NOT MET
//
smiles repr: NCCc1cc(O)c(O)cc1O
label value: MET
//
smiles repr: CCOc1ccc(NC(C)=O)cc1
label value: NOT MET
//
smiles repr: CCN1C[C@]2(COC)[C@H](O)C[C@H](OC)[C@@]34[C@@H]5C[C@@]6(O)[C@H](OC(=O)c7ccccc7)[C@@H]5[C@@](OC(C)=O)([C@@H]([C@H](OC)[C@H]23)[C@@H]14)[C@@H](O)[C@@H]6OC
label value: MET
//
smiles repr: CC(=O)N[C@@H](CS)C(=O)O
label value: MET
//
smiles repr: COc1ccc2cc1Oc1ccc(cc1)C[C@H]1c3c(cc4c(c3Oc3cc5c(cc3OC)CCN(C)[C@@H]5C2)OCO4)CCN1C
label value: MET

Continue with the next compound.
Task item: Confirm if 20mM inhibition LmjIPCS reported for the compound COc1ccc2[nH]cc(CCN)c2c1 is 50% or above.
Reply: NOT MET

###

# target or test system: LmjIPCS (inositol phosphorylceramide synthase from L. major) (Leishmania major, UniProt E9AFX2)
# Sequence (E9AFX2 1-338): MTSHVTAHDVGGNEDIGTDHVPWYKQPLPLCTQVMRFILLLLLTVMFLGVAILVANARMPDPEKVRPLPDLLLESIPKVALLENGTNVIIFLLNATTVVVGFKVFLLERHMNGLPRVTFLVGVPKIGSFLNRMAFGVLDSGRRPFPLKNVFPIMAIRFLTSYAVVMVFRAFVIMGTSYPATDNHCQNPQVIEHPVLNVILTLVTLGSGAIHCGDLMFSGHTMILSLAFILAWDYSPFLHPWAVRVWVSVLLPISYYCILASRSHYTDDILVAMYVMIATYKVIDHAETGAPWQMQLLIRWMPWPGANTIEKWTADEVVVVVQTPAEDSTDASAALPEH
# method: biochemical
# Format: biochemical
# condition info: NINDS set screen, single concentration printed as 20mM
result type: 20mM inhibition LmjIPCS (%)
Answers are plain numbers, in %.

compound: CSc1ccc2c(c1)C(N1CCN(C)CC1)Cc1ccccc1S2 (stereo not shown) [METHIOTHEPIN]
20mM inhibition LmjIPCS (%): 55

// for each compound below, give its 20mM inhibition LmjIPCS
1. C=C1c2c(Cl)ccc(O)c2C(=O)C2=C(O)[C@]3(O)C(=O)C(C(N)=O)=C(O)[C@@H](N(C)C)[C@@H]3[C@@H](O)[C@H]12
2. COC1=C[C@@H](C)[C@@H]2C[C@H]3OC(=O)C[C@H]4C(C)=C(OC)C(=O)[C@H]([C@@]2(C)C1=O)[C@@]34C
3. CN(Cc1cc(Br)cc(Br)c1N)C1CCCCC1

Reply:
[67, 70, 53]

###

# target or test system: LmjIPCS (inositol phosphorylceramide synthase from L. major) (Leishmania major, UniProt E9AFX2)
# method: biochemical
# Type: biochemical
# condition info: NINDS set screen, single concentration printed as 20mM
Is 20mM inhibition LmjIPCS at least 70%? Then MET. If not, NOT MET.

Task item: Confirm if 20mM inhibition LmjIPCS reported for the molecule NC(Cc1c[nH]cn1)C(=O)Nc1ccc2ccccc2c1 (stereo not drawn) is 70% or above.
Reply: NOT MET

Task item: Repeat with N#Cc1ccc2c(c1)N(CCCN1CCC(O)CC1)c1ccccc1S2 [PERICIAZINE]
Reply: NOT MET

Task item: Repeat with CC(CN1c2ccccc2Sc2ccccc21)N(C)C (stereo not drawn) [PROMETHAZINE]
Reply: MET

Task item: Repeat with C=CC1=C(C)c2cc3[nH]c(cc4nc(cc5[nH]c(cc1n2)c(C)c5CCC(=O)O)C(CCC(=O)O)=C4C)c(C)c3C=C [PROTOPORPHYRIN IX]
Reply: MET

Task item: Repeat with Cc1cc(C(C)(C)C)cc(C)c1CC1=NCCN1 [XYLOMETAZOLINE]
Reply: NOT MET

Task item: Repeat with CC(C)(C)CC(C)(C)c1ccc(O)c(Cc2ccc(Cl)cc2Cl)c1 [CLOFOCTOL]
Reply: NOT MET

Task item: Repeat with COc1ccc(C(Cl)=C(c2ccc(OC)cc2)c2ccc(OC)cc2)cc1 [CHLOROTRIANISENE]
Reply: NOT MET

Task item: Repeat with NS(=O)(=O)c1cc2c(cc1Cl)N=C(CSCc1ccccc1)NS2(=O)=O [BENZTHIAZIDE]
Reply: NOT MET
